Value source: patent US20110124556

Kindly state pKd for each of the entries shown.
target: human insulin receptor (HIR) (human, UniProt P06213); assay: competition
# pKd is unitless: minus log10 of the molar concentration; print number only

# lookup: pKd of NSFYEALRMLSSK [S121]
7.51

Name the reported pKd value associated with the binder S218 (listing feature) chain 1: AFYDWFAKKX chain 2: AFYDWFAKKX
4.96

Requested field: pKd. Item: S359 (listing feature) chain 1: XDWLQRNANFYDWFVAEL chain 2: XDWLQRNANFYDWFVAEL
6.15

Entry under review: S217 (peptide) chain 1: SDGFYNAIELLS chain 2: SDGFYNAIELLS . Reported pKd?
5.41

Look up pKd for this binder: S252 (listing feature) chain 1: SDGFYNAIELLSX chain 2: SDGFYNAIELLSX
6.36

State the recorded pKd for this entry: SLEEEWAQVECEVYGRGCPSESFYDWFVRQLG [S555]
10.24

What does the data say about its pKd? Entry: AHENFYDWFVRQVSKK [S113]
6.23
